conditions: 313.4 K; 101.33 kPa; Liquid; Vibrating tube method
Assay Readout: mass density (kg/m3)

Molecule	mass density / kg/m3
C[NH2+]CCO.O=C[O-] [2-hydroxy-N-methylethanaminium formate]	1119.74
CCCC(=O)[O-].C[NH2+]CCO [N-methyl-2-hydroxyethylammonium butanoate]	1028.97
CC(=O)[O-].C[NH2+]CCO [N-methyl-2-hydroxyethylammonium acetate]	1091.63
CCCCC(=O)[O-].C[NH2+]CCO [2-hydroxy-N-methylethanaminium pentanoate]	1005.95
CC(C)C(=O)[O-].C[NH2+]CCO [2-hydroxy-N-methylethanaminium isobutyrate]	1033.49
CCC(=O)[O-].C[NH2+]CCO [2-hydroxy-N-methylethanaminium propionate]	1061.33
